Biological target: recombinant Caspase-5 (Homo sapiens)
Sequence (P51878 137-434): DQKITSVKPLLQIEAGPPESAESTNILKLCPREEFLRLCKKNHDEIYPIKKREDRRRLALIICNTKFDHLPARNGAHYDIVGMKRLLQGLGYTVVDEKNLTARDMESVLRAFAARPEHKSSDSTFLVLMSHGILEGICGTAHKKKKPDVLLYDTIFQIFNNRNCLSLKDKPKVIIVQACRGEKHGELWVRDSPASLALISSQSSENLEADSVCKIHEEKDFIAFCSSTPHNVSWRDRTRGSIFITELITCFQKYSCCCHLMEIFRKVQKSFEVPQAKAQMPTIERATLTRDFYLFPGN
Test: Caspase Inhibitor Drug Screening Kit (BioVision), WEHD-AFC substrate
Conditions: not active site titrated
property.measured: pIC50
API: returns pIC50 as number; meaning -log10 of concentration in mol/L.

Exercise: Answer with the recorded pIC50 of CCC(C)[C@H](NC(=O)[C@H](CCC(=O)O)NC(=O)[C@@H](NC(=O)OCc1ccccc1)C(C)C)C(=O)N[C@H](/C=C/S(C)(=O)=O)CC(=O)O (some centres unmarked) [NWL-117] only.
Solution: 4.71

Exercise: Answer with the recorded pIC50 of CCC(C)[C@H](NC(=O)[C@H](CCC(=O)O)NC(=O)[C@@H](NC(=O)OCc1ccccc1)C(C)C)C(=O)N[C@H](/C=C(\Cl)S(C)(=O)=O)CC(=O)O (some centres unmarked) [NWL-154] only.
Solution: 5.38

====

target: recombinant Caspase-4 (Homo sapiens, UniProt P49662); construct: purchased BioVision; test: Caspase Inhibitor Drug Screening Kit (BioVision), LEVD-AFC substrate; type: biochemical; conditions: not active site titrated
Sequence (P49662 81-377): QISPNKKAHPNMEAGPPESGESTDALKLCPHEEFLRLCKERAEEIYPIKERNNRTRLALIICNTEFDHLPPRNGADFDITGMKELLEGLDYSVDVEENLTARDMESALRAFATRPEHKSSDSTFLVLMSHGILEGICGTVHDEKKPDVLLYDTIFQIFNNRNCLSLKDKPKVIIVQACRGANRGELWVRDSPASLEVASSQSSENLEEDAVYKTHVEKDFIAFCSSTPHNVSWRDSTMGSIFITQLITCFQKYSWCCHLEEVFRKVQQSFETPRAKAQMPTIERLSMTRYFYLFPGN
property.measured: pIC50
API: returns pIC50 as number; meaning -log10 of concentration in mol/L.

Exercise: Answer with the recorded pIC50 of CCC(C)[C@H](NC(=O)[C@H](CCC(=O)O)NC(=O)[C@@H](NC(=O)OCc1ccccc1)C(C)C)C(=O)N[C@H](/C=C(\Cl)S(C)(=O)=O)CC(=O)O (some centres unmarked) only.
Solution: 5.74

Exercise: Answer with the recorded pIC50 of CCC(C)[C@H](NC(=O)[C@H](CCC(=O)O)NC(=O)[C@@H](NC(=O)OCc1ccccc1)C(C)C)C(=O)N[C@H](/C=C/S(C)(=O)=O)CC(=O)O (some centres unmarked) only.
Solution: 6.42

====

target: recombinant Caspase-3 (Homo sapiens, UniProt P42574); assay: Caspase Inhibitor Drug Screening Kit (BioVision), DEVD-AFC substrate; conditions: not active site titrated
Sequence (P42574 29-277): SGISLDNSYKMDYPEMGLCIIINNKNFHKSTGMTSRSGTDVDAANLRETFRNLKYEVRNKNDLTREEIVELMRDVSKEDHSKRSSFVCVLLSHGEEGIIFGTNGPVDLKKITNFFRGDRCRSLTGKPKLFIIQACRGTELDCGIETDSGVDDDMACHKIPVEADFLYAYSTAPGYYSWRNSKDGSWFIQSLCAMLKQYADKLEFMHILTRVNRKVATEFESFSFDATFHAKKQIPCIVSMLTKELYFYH
Would you kindly list pIC50 for each of these compounds?
API: returns pIC50 as number; meaning -log10 of concentration in mol/L.

Exercise: Answer with the recorded pIC50 of CCC(C)[C@H](NC(=O)[C@H](CCC(=O)O)NC(=O)[C@@H](NC(=O)OCc1ccccc1)C(C)C)C(=O)N[C@H](/C=C/S(C)(=O)=O)CC(=O)O (some centres unmarked) only.
Solution: 5.16

Exercise: Answer with the recorded pIC50 of CCC(C)[C@H](NC(=O)[C@H](CCC(=O)O)NC(=O)[C@@H](NC(=O)OCc1ccccc1)C(C)C)C(=O)N[C@H](/C=C(\Cl)S(C)(=O)=O)CC(=O)O (some centres unmarked) only.
Solution: 5.87

====

Target: Casp6 in Casp6-transfected HCT116 cells (Homo sapiens, UniProt P55212)
Construct: The mammalian constructs encoding human Casp6p20p10 in the pCep4β vector
Sequence (P55212 24-179): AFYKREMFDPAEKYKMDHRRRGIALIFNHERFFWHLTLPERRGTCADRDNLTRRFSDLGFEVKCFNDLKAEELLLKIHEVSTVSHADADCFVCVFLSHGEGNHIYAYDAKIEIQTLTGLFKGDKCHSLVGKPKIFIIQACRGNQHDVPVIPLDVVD
Sequence (P55212 194-293): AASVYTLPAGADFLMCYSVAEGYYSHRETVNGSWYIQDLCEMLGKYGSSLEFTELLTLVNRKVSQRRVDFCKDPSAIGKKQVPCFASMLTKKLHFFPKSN
Experiment: Casp6 VEIDase activity in extracts of Casp6p20p10-transfected HCT116 cells treated with inhibitor
Details: cells treated for 2 h; read-out: IC50 on Casp6 activity in pCep4β-Casp6p20p10-transfected HCT116 cells
property.measured: IC50
Please append the unit to your numeric answer.

Exercise: Answer with the recorded IC50 of CCC(C)[C@H](NC(=O)[C@H](CCC(=O)O)NC(=O)[C@@H](NC(=O)OCc1ccccc1)C(C)C)C(=O)N[C@H](/C=C(\Cl)S(C)(=O)=O)CC(=O)O (some centres unmarked) [NWL-154] only.
Solution: 3.63 µM

Exercise: Answer with the recorded IC50 of CCC(C)[C@H](NC(=O)[C@H](CCC(=O)O)NC(=O)[C@@H](NC(=O)OCc1ccccc1)C(C)C)C(=O)N[C@H](/C=C/S(C)(=O)=O)CC(=O)O (some centres unmarked) [NWL-117] only.
Solution: 4.82 µM

====

Target: recombinant Caspase-7 (Homo sapiens, UniProt P55210)
Sequence (P55210 1-303): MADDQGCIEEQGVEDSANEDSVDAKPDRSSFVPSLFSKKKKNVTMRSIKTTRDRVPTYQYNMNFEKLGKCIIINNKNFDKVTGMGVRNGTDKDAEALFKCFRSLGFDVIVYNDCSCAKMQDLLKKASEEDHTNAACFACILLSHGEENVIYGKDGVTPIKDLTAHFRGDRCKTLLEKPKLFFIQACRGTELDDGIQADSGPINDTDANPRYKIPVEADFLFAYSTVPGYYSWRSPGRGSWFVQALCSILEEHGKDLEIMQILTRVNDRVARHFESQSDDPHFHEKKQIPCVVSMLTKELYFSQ
Experiment: Caspase Inhibitor Drug Screening Kit (BioVision), DEVD-AFC substrate
Details: not active site titrated
Would you kindly list IC50 for each of these compounds?

Exercise: Answer with the recorded IC50 of CCC(C)[C@H](NC(=O)[C@H](CCC(=O)O)NC(=O)[C@@H](NC(=O)OCc1ccccc1)C(C)C)C(=O)N[C@H](/C=C(\Cl)S(C)(=O)=O)CC(=O)O (some centres unmarked) only.
Solution: > 100 µM

Exercise: Answer with the recorded IC50 of CCC(C)[C@H](NC(=O)[C@H](CCC(=O)O)NC(=O)[C@@H](NC(=O)OCc1ccccc1)C(C)C)C(=O)N[C@H](/C=C/S(C)(=O)=O)CC(=O)O (some centres unmarked) only.
Solution: > 100 µM

====

test: Blood-brain barrier permeability by LC/MS-MS after carotid artery injection; type: in vivo, mouse; details: male, Casp6-expressing transgenic mice, mouse, in vivo, 20 mg/kg
property.measured: concentration at 5 min

Exercise: Answer with the recorded concentration at 5 min of CCC(C)[C@H](NC(=O)[C@H](CCC(=O)O)NC(=O)[C@@H](NC(=O)OCc1ccccc1)C(C)C)C(=O)N[C@H](/C=C/S(C)(=O)=O)CC(=O)O (stereo partly shown) only.
Solution: 67.9 to 879 nM

====

Target: recombinant Caspase-10 (Homo sapiens)
Sequence (Q92851 220-521): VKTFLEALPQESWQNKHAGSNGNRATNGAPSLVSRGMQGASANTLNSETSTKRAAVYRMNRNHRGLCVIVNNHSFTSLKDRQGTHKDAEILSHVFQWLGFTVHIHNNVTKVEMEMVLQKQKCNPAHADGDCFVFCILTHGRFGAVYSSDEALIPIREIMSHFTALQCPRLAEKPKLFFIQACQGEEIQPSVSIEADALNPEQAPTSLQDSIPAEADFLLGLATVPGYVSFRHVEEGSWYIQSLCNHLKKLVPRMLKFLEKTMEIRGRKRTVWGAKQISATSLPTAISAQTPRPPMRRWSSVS
Assay: Caspase Inhibitor Drug Screening Kit (BioVision), AEVD-AFC substrate
Settings: not active site titrated
property.measured: IC50 (µM)
The figure you give is taken to be in µM; do not add the unit.

Exercise: Report measured IC50 on recombinant Caspase-10 (Homo sapiens); entry: CCC(C)[C@H](NC(=O)[C@H](CCC(=O)O)NC(=O)[C@@H](NC(=O)OCc1ccccc1)C(C)C)C(=O)N[C@H](/C=C(\Cl)S(C)(=O)=O)CC(=O)O (some centres unmarked)
Solution: 0.19

Exercise: Report measured IC50 on recombinant Caspase-10 (Homo sapiens); entry: CCC(C)[C@H](NC(=O)[C@H](CCC(=O)O)NC(=O)[C@@H](NC(=O)OCc1ccccc1)C(C)C)C(=O)N[C@H](/C=C/S(C)(=O)=O)CC(=O)O (some centres unmarked)
Solution: 0.13

====

Target: recombinant Caspase-2 (Homo sapiens)
Sequence (P42575 1-452): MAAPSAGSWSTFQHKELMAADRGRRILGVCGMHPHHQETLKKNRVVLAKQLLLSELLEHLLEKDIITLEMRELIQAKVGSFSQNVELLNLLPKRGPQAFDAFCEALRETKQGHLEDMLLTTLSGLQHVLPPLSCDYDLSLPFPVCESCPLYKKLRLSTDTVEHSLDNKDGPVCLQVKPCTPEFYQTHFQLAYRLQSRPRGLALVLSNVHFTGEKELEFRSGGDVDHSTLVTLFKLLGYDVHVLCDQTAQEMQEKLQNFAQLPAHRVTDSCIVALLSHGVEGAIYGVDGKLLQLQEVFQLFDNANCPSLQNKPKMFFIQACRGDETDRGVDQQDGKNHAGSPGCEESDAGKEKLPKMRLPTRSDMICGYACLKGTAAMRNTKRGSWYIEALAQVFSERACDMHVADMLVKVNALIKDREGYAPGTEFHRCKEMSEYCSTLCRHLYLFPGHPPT
Assay: Caspase Inhibitor Drug Screening Kit (BioVision), VDVAD-AFC substrate
Settings: not active site titrated
Would you kindly list IC50 for each of these compounds?

Exercise: Answer with the recorded IC50 of CCC(C)[C@H](NC(=O)[C@H](CCC(=O)O)NC(=O)[C@@H](NC(=O)OCc1ccccc1)C(C)C)C(=O)N[C@H](/C=C(\Cl)S(C)(=O)=O)CC(=O)O (some centres unmarked) [NWL-154] only.
Solution: > 100 µM

Exercise: Answer with the recorded IC50 of CCC(C)[C@H](NC(=O)[C@H](CCC(=O)O)NC(=O)[C@@H](NC(=O)OCc1ccccc1)C(C)C)C(=O)N[C@H](/C=C/S(C)(=O)=O)CC(=O)O (some centres unmarked) [NWL-117] only.
Solution: > 100 µM
